Readings of half-life for the listed compounds
Assay: stability under physiological conditions (degradative hydrolysis in phosphate buffer)
Assay type: physicochemical
Conditions: 0.1m phosphate buffer, pH 7.4
Experimental: The table below provides the […] in 0.1M phosphate buffer (pH 7.4) at 37° C.

Given the entry CO[C@H]1C[C@@H]2CC[C@@H](C)[C@@](O)(O2)C(=O)C(=O)N2CCCC[C@H]2C(=O)O[C@H]([C@H](C)C[C@@H]2CC[C@@H](OC(=O)CC[C@H](NC(=O)OC(C)(C)C)C(=O)OC(C)(C)C)[C@H](OC)C2)CC(=O)[C@H](C)/C=C(\C)[C@@H](O)[C@@H](OC)C(=O)[C@H](C)C[C@H](C)/C=C/C=C/C=C/1C [reference compound] , report its measured half-life.
1 days

Next: CO/N=C1/C[C@@H]([C@H](C)C[C@@H]2CC[C@@H](O)[C@H](OC)C2)OC(=O)[C@@H]2CCCCN2C(=O)C(=O)[C@]2(O)O[C@@H](CC[C@H]2C)C[C@H](OC)/C(C)=C/C=C/C=C/[C@@H](C)C[C@@H](C)C(=O)[C@H](OC)[C@H](O)/C(C)=C/[C@H]1C [Rapamycin (Z)-27-(O-methoxime), rapamycin (Z)-27-(O-methoxime)]
6.5 days

Next: CO/N=C1\C[C@@H]([C@H](C)C[C@@H]2CC[C@@H](O)[C@H](OC)C2)OC(=O)[C@@H]2CCCCN2C(=O)C(=O)[C@]2(O)O[C@@H](CC[C@H]2C)C[C@H](OC)/C(C)=C/C=C/C=C/[C@@H](C)C[C@@H](C)C(=O)[C@H](OC)[C@H](O)/C(C)=C/[C@H]1C [Rapamycin (E)-27-(O-methoxime), rapamycin (E)-27-(O-methoxime)]
2.46 days

* * *

Assay: stability under physiological conditions (degradative hydrolysis in phosphate buffer)
Format: physicochemical
Conditions: 0.1m phosphate buffer, pH 7.4
Value Type: half-life (days)
The reply should contain only the number, in days.

Given the entry CO/N=C1/C[C@@H]([C@H](C)C[C@@H]2CC[C@@H](OC(=O)CC[C@H](NC(=O)OC(C)(C)C)C(=O)OC(C)(C)C)[C@H](OC)C2)OC(=O)[C@@H]2CCCCN2C(=O)C(=O)[C@]2(O)O[C@@H](CC[C@H]2C)C[C@H](OC)/C(C)=C/C=C/C=C/[C@@H](C)C[C@@H](C)C(=O)[C@H](OC)[C@H](O)/C(C)=C/[C@H]1C , report its measured half-life.
11

* * *

Experiment: stability under physiological conditions (degradative hydrolysis in phosphate buffer)
Assay type: physicochemical
Conditions: 0.1M phosphate buffer (pH 7.4) at 37° C.; read-out: Half Life (converted)
Description: The table below provides the […] in 0.1M phosphate buffer (pH 7.4) at 37° C.
Value Type: half-life (h)
The reply should contain only the number, in h.

Given the entry CO[C@H]1C[C@@H]2CC[C@@H](C)[C@@](O)(O2)C(=O)C(=O)N2CCCC[C@H]2C(=O)O[C@H]([C@H](C)C[C@@H]2CC[C@@H](O)[C@H](OC)C2)CC(=O)[C@H](C)/C=C(\C)[C@@H](O)[C@@H](OC)C(=O)[C@H](C)C[C@H](C)/C=C/C=C/C=C/1C [Rapamycin] , report its measured half-life.
13
